study system: recombinant human ACC2 (Homo sapiens (Human))
Sequence (O00763 27-2458): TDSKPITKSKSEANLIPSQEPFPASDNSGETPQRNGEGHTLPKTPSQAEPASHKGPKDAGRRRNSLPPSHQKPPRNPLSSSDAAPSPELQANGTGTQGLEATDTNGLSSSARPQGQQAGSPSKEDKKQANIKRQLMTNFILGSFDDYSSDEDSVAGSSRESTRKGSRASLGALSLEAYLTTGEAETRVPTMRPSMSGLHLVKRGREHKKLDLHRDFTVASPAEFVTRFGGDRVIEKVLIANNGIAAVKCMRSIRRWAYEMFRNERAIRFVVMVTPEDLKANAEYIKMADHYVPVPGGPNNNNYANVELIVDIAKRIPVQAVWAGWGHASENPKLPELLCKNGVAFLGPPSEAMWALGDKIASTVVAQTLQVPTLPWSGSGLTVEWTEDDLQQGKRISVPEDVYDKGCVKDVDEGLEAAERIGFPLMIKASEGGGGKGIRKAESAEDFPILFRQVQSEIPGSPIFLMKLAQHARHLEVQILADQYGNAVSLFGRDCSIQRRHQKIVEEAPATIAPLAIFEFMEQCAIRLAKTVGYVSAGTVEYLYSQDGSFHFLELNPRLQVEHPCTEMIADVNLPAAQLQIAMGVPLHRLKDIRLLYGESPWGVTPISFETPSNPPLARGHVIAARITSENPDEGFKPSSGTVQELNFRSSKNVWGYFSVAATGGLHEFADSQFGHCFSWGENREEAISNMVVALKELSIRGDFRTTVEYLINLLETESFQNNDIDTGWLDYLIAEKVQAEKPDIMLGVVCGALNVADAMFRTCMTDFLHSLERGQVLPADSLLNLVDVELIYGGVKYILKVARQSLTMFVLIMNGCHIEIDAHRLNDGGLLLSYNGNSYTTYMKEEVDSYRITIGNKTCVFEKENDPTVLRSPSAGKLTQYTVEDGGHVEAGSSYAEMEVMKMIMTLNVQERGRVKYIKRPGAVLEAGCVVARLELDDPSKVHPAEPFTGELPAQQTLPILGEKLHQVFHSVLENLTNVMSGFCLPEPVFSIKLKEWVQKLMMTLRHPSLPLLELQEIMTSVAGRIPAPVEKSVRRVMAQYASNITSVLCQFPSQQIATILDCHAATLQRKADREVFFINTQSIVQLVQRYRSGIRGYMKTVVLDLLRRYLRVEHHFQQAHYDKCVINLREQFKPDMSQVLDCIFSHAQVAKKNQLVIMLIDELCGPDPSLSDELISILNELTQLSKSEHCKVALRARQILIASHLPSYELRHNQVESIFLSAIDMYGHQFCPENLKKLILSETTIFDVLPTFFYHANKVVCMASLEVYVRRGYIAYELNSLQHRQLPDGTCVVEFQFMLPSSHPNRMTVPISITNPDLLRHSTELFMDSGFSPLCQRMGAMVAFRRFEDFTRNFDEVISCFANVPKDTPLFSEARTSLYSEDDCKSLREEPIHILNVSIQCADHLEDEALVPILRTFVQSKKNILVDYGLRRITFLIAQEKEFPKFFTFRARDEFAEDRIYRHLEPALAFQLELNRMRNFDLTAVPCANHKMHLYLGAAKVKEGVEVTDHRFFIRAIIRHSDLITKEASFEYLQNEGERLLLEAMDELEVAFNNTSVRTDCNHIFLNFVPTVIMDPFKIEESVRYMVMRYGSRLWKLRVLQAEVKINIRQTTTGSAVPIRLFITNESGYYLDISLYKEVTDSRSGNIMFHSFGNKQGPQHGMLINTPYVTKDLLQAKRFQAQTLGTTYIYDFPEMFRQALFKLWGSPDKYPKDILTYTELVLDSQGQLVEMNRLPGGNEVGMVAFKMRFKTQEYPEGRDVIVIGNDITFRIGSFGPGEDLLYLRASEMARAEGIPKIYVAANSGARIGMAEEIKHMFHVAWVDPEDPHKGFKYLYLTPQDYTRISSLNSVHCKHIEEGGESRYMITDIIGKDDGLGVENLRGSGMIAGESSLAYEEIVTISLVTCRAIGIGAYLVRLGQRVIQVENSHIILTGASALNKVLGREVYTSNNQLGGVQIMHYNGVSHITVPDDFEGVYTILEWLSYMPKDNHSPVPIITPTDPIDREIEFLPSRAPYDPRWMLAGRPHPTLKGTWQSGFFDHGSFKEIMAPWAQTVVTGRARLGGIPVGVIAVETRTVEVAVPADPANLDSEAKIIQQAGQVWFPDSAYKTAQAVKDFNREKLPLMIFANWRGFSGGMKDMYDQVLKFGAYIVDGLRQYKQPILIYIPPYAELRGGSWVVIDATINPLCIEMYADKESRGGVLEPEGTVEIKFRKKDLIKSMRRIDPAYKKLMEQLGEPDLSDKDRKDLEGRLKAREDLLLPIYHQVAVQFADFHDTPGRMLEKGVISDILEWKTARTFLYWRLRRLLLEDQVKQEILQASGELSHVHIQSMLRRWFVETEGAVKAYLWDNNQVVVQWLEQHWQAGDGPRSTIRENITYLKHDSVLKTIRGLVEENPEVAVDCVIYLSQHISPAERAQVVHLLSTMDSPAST
test details: Measurement of inhibitory activity on human ACC2 (MALDI-TOF MS, conversion of acetyl CoA to malonyl CoA)
assay context: recombinant human ACC2, room temperature, 1 to 3 hours
Text: After a cDNA encoding human ACC2 (27 amino acid residue to 2458 amino acid residues from the N-terminus) was cloned from human kidney cDNA library (Clontech), human ACC2 gene containing His-tag sequence at 5′ terminus was inserted into pFastBac1 (Invitrogen). Recombinant baculovirus was generated using Bac-to-Bac baculovirus expression system (Invitrogen) according to the manufacturer's protocol. To express human ACC2, Sf-9 cells were infected with recombinant baculovirus. […]
Classes by IC50: low: < 10 nM; middle: ≥ 10 nM and < 40 nM; high: ≥ 40 nM

These recorded examples may help you get a feel for the data.
[
  {
    "smiles repr": "CC(=O)N[C@@H](C)CC[C@H]1OC[C@H](Oc2nc3c(F)cc(OCC(F)F)c(F)c3n2C)CC1(F)F",
    "discrete label": "middle"
  },
  {
    "smiles repr": "C[C@@H](CO[C@H]1CC[C@H](Oc2nc3cnc(OC4CC4)c(F)c3n2C)CC1)NC(N)=O",
    "discrete label": "middle"
  },
  {
    "smiles repr": "CC(=O)N[C@@H](C)CO[C@H]1CC[C@H](Oc2nc3c(C#N)cc(OC4CC4)cc3n2C)CC1",
    "discrete label": "middle"
  },
  {
    "smiles repr": "CC(=O)N[C@@H](C)CO[C@H]1CC[C@H](Oc2nc3cnc(OC4CC4)cc3n2C)CC1",
    "discrete label": "high"
  },
  {
    "smiles repr": "Cn1c(O[C@H]2CC[C@H](OC[C@H](CF)NC(=O)CC#N)CC2)nc2c(F)cc(OCC(F)F)c(F)c21",
    "discrete label": "high"
  }
]

Could you place `CC(=O)N[C@@H](CF)CO[C@H]1CC[C@H](Oc2nc3c(F)cc(OC4CC4)cc3n2C)CC1` in its proper category? Many thanks.
low

Could you place `CC(=O)N[C@@H](C)CO[C@H]1CC[C@H](Oc2nc3ccc(OC4CC4)c(F)c3n2C)CC1` in its proper category? Many thanks.
low

Could you place `C[C@@H](CO[C@H]1CC[C@H](Oc2nc3cc(F)c(OC4CC4)cc3n2C)CC1)NC(N)=O` in its proper category? Many thanks.
high

Could you place `COC(=O)N[C@@H](CF)CO[C@H]1CC[C@H](Oc2nc3c(F)cc(OCC(F)F)c(F)c3n2C)CC1` in its proper category? Many thanks.
middle

Could you place `CC(=O)N[C@@H](C)CO[C@H]1CC[C@H](Oc2nc3c(F)cc(OC4COC4)c(Cl)c3n2C)CC1` in its proper category? Many thanks.
middle

Could you place `CC(=O)N[C@@H](C)CO[C@H]1CC[C@H](Oc2nc3ccc(OC4CC4)cc3n2C)CC1` in its proper category? Many thanks.
low

Could you place `CC(=O)N[C@H](C)C(F)(F)C[C@H]1CC[C@H](Oc2nc3c(F)cc(OCC(F)F)c(F)c3n2C)CO1` in its proper category? Many thanks.
high

Could you place `C[C@@H](CO[C@H]1CC[C@H](Oc2nc3c(F)c(F)c(F)c(F)c3n2C)CC1)NC(N)=O` in its proper category? Many thanks.
high

Could you place `CC(=O)N[C@@H](C)CO[C@H]1CC[C@H](Oc2nc3cc(F)c(OC4CC4)c(F)c3n2C)CC1` in its proper category? Many thanks.
low
